All figures here come from patent US6596687B1.

# Assay Target: VLA4 (Homo sapiens, UniProt P05556+P13612)
# Construct: endogenous in cells; host or cells: Ramos cells
# Sequence (P13612 34-1032): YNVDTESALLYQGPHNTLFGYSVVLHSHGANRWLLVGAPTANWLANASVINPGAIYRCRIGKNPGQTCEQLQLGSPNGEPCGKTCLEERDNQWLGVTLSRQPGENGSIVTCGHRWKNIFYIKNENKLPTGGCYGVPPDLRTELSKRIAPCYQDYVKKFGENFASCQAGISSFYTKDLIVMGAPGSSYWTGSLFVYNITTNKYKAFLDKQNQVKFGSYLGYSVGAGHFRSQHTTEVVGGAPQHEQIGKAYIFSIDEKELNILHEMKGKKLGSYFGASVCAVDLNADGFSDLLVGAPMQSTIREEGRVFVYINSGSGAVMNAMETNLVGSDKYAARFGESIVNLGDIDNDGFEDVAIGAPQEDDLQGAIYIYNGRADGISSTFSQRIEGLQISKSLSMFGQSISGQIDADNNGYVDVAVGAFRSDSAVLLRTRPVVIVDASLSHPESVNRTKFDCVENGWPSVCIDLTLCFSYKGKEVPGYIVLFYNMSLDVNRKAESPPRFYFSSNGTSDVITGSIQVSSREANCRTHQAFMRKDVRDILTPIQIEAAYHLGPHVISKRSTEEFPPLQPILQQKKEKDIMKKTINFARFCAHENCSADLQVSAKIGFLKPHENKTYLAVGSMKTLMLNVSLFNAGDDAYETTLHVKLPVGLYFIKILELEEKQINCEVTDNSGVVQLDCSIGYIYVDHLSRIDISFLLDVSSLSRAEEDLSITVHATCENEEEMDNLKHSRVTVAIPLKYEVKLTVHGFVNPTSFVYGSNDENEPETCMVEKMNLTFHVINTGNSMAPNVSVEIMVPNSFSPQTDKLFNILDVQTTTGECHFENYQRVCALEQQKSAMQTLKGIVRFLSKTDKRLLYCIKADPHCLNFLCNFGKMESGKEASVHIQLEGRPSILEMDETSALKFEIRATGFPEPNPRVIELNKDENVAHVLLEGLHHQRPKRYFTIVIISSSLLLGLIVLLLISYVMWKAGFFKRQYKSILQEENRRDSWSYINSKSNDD
# Sequence (P05556 21-798): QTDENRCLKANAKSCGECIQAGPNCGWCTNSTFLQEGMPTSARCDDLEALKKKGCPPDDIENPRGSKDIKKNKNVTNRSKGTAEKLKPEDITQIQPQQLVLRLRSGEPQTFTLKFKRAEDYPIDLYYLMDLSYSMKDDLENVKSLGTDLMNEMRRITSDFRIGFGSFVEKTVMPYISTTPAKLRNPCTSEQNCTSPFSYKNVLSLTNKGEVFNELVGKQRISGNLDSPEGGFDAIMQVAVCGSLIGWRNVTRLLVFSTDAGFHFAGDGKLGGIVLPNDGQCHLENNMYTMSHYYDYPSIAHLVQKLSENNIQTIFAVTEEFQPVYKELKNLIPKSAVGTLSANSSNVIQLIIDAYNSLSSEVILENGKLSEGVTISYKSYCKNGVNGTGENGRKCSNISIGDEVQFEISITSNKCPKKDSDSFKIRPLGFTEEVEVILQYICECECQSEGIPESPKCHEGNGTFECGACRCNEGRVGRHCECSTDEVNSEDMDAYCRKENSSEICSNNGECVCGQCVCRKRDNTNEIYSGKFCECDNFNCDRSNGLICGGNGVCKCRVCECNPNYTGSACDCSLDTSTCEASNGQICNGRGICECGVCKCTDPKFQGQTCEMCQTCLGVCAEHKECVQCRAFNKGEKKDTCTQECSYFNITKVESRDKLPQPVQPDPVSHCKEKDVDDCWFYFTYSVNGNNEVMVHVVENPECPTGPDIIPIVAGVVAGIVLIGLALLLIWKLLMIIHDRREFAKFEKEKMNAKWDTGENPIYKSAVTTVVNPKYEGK
# Test: Inhibition of VLA4-dependent adhesion of Ramos cells to BSA-CS1
# Type: cell-based
# Measurement Context: Ramos cells, BSA-CS1 coated wells, 2 mM MnCl2, 30 minutes at room temperature; read-out: IC50
pIC50: −log10 of the molar value. Numbered stars: 1 amine (or outer) side, 2 acyl side, 3 side chain; on linkers, the order of the positions; unused ones are H or OH. Square brackets hold non-standard residues; d marks the D form. Peptide text beside a SMILES is read from it. * marks the point of attachment. X3 = COc1cc(CC(=O)[*:2])ccc1N[*:1]; CO = O=C([*:1])[*:2]; NHPh = c1ccc(N*)cc1

# Compound, Assay Target, pIC50
data = [
    ("CC(C)C[C@H](NC(=O)c1cc2ccccc2cn1)C(=O)N[C@@H](CO)C(=O)N[C@H](C(=O)O)C(C)C [Compound 7]", "VLA4 (Homo sapiens, UniProt P05556+P13612)", "< 5.00"),
    ("CC(C)CNC(=O)[C@H](CC(=O)O)NC(=O)[C@H](CC(C)C)NC(=O)CCCc1ccccc1 [Compound 161]", "VLA4 (Homo sapiens, UniProt P05556+P13612)", "< 5.00"),
    ("COc1cc(CC(=O)N[C@@H](CC(C)C)C(=O)N[C@@H](CC(=O)O)C(=O)N[C@H](C(=O)N2CCC[C@H]2C(N)=O)C(C)C)ccc1NC(=O)Nc1ccccc1 [Compound 147] ({NHPh-CO}-[X3]LDVP-NH2)", "VLA4 (Homo sapiens, UniProt P05556+P13612)", "> 7.30"),
    ("CC(C)[C@H](NC(=O)[C@H](CC(=O)O)NC(=O)[C@H](C)NC(=O)c1cc2ccccc2cn1)C(=O)O [Compound 97]", "VLA4 (Homo sapiens, UniProt P05556+P13612)", "< 5.00"),
    ("COC(=O)[C@@H]1CCCN1C(=O)[C@@H](NC(=O)[C@H](CC(=O)O)NC(=O)[C@H](CC(C)C)NC(=O)Cc1ccccc1)C(C)C [Compound 35]", "VLA4 (Homo sapiens, UniProt P05556+P13612)", "5.00 to 7.30"),
    ("COC(=O)[C@@H](NC(=O)[C@H](CC(=O)O)NC(=O)[C@H](CC(C)C)NC(=O)CCCc1ccccc1)C(C)C [Compound 166]", "VLA4 (Homo sapiens, UniProt P05556+P13612)", "< 5.00"),
]

----------
# Assay Target: VLA4 (Homo sapiens, UniProt P05556+P13612)
# Construct: endogenous in cells; host or cells: Ramos cells
# Test: Inhibition of VLA4-dependent adhesion of Ramos cells to BSA-CS1
# Assay type: cell-based
# Measurement Context: Ramos cells, BSA-CS1 coated wells, 2 mM MnCl2, 30 minutes at room temperature; read-out: IC50
Reported IC50 is given for each of the following compounds.
Metric Name: IC50

# Compound, Recorded Value
rows = [
    ("Cc1ccccc1NC(=O)Nc1ccc(CC(=O)N[C@H](C(=O)N[C@@H](CC(=O)O)C(=O)N[C@@H](CC(C)C)C(N)=O)[C@@H](C)O)cc1", "< 0.05 µM"),
    ("CC(C)C[C@H](NC(=O)c1ccc2ccccc2n1)C(=O)N[C@@H](CC(=O)O)C(=O)N[C@@H](CC(=O)O)C(=O)O", "> 10 µM"),
    ("CNC(=O)[C@@H](NC(=O)[C@H](CC(=O)O)NC(=O)[C@H](CC(C)C)N(C)C(=O)c1ccc2ccccc2n1)C(C)C", "> 10 µM"),
    ("CC(C)C[C@H](NC(=O)c1ccc2ccccc2n1)C(=O)N[C@@H](CC(=O)O)C(=O)NCCC(C)(C)C", "> 10 µM"),
    ("COC(=O)[C@@H](NC(=O)[C@H](CC(=O)O)NC(=O)[C@H](CC(C)C)N(C)C(=O)CCCc1ccccc1)C(C)C", "> 10 µM"),
    ("CC(C)C[C@H](NC(=O)c1ccc2ccccc2n1)C(=O)N[C@@H](CC(=O)O)C(=O)NC(CO)C(C)C (stereo partly drawn)", "0.05 to 10 µM"),
]
